MEASURED_ON: T1, human GHS-R1a receptor (growth hormone secretagogue receptor 1a) (human, UniProt Q92847 1-366)
T1 construct: whole, on cells; Functional assays: HEK-293T cells transiently transfected with human GHS-R1a; also called ghrelin receptor
MEASUREMENT_DESCRIPTION: competitive displacement of 125I-ghrelin, membranes of HEK293T cells with transfected human GHS-R1a
Non-standard residues stand in square brackets, D forms with d. No end group written: not given here. *: point of attachment. Palmitoyl = CCCCCCCCCCCCCCCC(=O)*; Myristoyl = CCCCCCCCCCCCCC(=O)*; Decanoyl = CCCCCCCCCC(=O)*; Octanoyl = CCCCCCCC(=O)*; Dap = NC[C@H](N)C(=O)O; Sar = CNCC(=O)O
Could you label it Condition met if measured % of ghrelin binding is 60% or higher, and Condition not met otherwise?

binder="XSXXLSPEHQKAQQRKESKKPPAKLQPR (sarcosine (Sar) at position 1; diaminopropionic acid N-decanoyl (Dpr-N-dec) at position 3; cyclohexylalanine (Cha) at position 4, Synthetic ghrelin analog) [ghrelin analog no. 5, (Sar)S(Dpr-N-dec)(Cha)LSPEHQKAQQRKESKKPPAKLQPR]" label="Condition met"
binder="XSXFLSPEHQKAQQRKESKKPPAKLQPR (sarcosine (Sar) at position 1; diaminopropionic acid N-9-decenoyl (Dpr-N-9-decen) at position 3, Synthetic ghrelin analog) [ghrelin analog no. 12, (Sar)S(Dpr-N-9-decen)FLSPEHQKAQQRKESKKPPAKLQPR]" label="Condition met"
binder="XSXXLSPEHQKAQQRKESKKPPAKLQPR (sarcosine (Sar) at position 1; diaminopropionic acid N-decanoyl (Dpr-N-dec) at position 3; 1-naphtylalanine (1-Nal) at position 4, Synthetic ghrelin analog) [ghrelin analog no. 3, (Sar)S(Dpr-N-dec)(1-Nal)LSPEHQKAQQRKESKKPPAKLQPR]" label="Condition met"
binder="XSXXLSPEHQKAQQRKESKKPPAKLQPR (sarcosine (Sar) at position 1; diaminopropionic acid N-octanoyl (Dpr-N-oct) at position 3; cyclohexylalanine (Cha) at position 4; Lys 24 N-palmitoyl (K(N-palm)), Synthetic ghrelin analog) [ghrelin analog no. 8, (Sar)S(Dpr-N-oct)(Cha)LSPEHQKAQQRKESKKPPAK(N-palm)LQPR]" label="Condition not met"
binder="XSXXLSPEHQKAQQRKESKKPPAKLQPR (sarcosine (Sar) at position 1; diaminopropionic acid N-myristoyl (Dpr-N-myr) at position 3; 1-naphtylalanine (1-Nal) at position 4, Synthetic ghrelin analog) [ghrelin analog no. 4, (Sar)S(Dpr-N-myr)(1-Nal)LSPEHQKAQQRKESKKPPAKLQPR]" label="Condition not met"
binder="GSS(Octanoyl)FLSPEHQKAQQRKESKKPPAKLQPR [Ghrelin]" label="Condition met"
binder="[Sar]S[Dap](Myristoyl)FLSPEHQKAQQRK(Palmitoyl)ES [ghrelin analog no. 16, (Sar)S(Dpr-N-myr)FLSPEHQKAQQRK(N-palm)ES]" label="Condition not met"
binder="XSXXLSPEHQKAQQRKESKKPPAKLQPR (not fully specified; sarcosine (Sar) at position 1; diaminopropionic acid N-octanoyl (Dpr-N-oct) at position 3; naphtylalanine (Nal) at position 4; Lys 24 N-palmitoyl (K(N-palm)), Synthetic ghrelin analog) [ghrelin analog no. 9, (Sar)S(Dpr-N-oct)(Nal)LSPEHQKAQQRKESKKPPAK(N-palm)LQPR]" label="Condition not met"
binder="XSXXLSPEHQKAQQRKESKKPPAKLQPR (not fully specified; sarcosine (Sar) at position 1; diaminopropionic acid N-octanoyl (Dpr-N-oct) at position 3; dichlorophenylalanine (PheCl2) at position 4, Synthetic ghrelin analog) [ghrelin analog no. 13, (Sar)S(Dpr-N-oct)(PheCl2)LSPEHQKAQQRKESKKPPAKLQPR]" label="Condition not met"
binder="XSXFLSPEHQKAQQRKESKKPPAKLQPR (sarcosine (Sar) at position 1; diaminopropionic acid N-10-undecynoyl (Dpr-N-10-undecyn) at position 3, Synthetic ghrelin analog) [ghrelin analog no. 11, (Sar)S(Dpr-N-10-undecyn)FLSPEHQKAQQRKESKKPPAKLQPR]" label="Condition met"
binder="[Sar]S[Dap](Decanoyl)FLSPEHQKAQQRKES [ghrelin analog no. 17, (Sar)S(Dpr-N-dec)FLSPEHQKAQQRKES]" label="Condition not met"
binder="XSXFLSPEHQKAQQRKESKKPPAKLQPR (sarcosine (Sar) at position 1; diaminopropionic acid N-octanoyl (Dpr-N-oct) at position 3; Lys 24 N-palmitoyl (K(N-palm)), Synthetic ghrelin analog) [ghrelin analog no. 7, (Sar)S(Dpr-N-oct)FLSPEHQKAQQRKESKKPPAK(N-palm)LQPR]" label="Condition not met"
binder="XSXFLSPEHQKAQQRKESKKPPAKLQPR (sarcosine (Sar) at position 1; diaminopropionic acid N-myristoyl (Dpr-N-myr) at position 3, Synthetic ghrelin analog; also called analog 2) [ghrelin analog no. 2, (Sar)S(Dpr-N-myr)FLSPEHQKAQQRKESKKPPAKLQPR]" label="Condition not met"
